- Test system: giant foxtail
- protocol notes: Test B pre/postemergence giant foxtail
- Assay type: in vivo, Setaria faberii
- condition context: Postemergence, Rate 250 g/ha; scale 0 to 10, 0 no effect, 10 complete control
This section presents molecules with their documented Giant foxtail plant response rating values.
property: Giant foxtail plant response rating

molecule="Cc1cccc(C)c1-n1c(=O)on(C(=O)N(Cc2ccccc2)C(C)C)c1=O [Compound 69]" property="Giant foxtail plant response rating" assay_value=0
molecule="CC(C)N(C(=O)n1oc(=O)n(Cc2ccccc2)c1=O)c1ccccc1 [Compound 94]" property="Giant foxtail plant response rating" assay_value=5
molecule="CC(C)N(C(=O)n1oc(=O)n(C(C)C)c1=O)c1ccc(F)cc1F [Compound 109]" property="Giant foxtail plant response rating" assay_value=9
molecule="CCc1ccccc1-n1c(=O)on(C(=O)N(c2ccc(F)cc2)C(C)C)c1=O [Compound 34]" property="Giant foxtail plant response rating" assay_value=2
